Entries and their measured EC50 follow.
# System: Bloodstream form of Trypanosoma brucei, strain Lister 427
# EXPERIMENT_SUMMARY: Trypanosoma brucei growth inhibition assay (CellTiter-Glo, 24 h)
# Format: cell-based
# ASSAY_CONDITIONS: Trypanosoma brucei; T. Brucei Growth Inibition Assay, class symbols; read-out: T. Brucei GI EC50

MOLECULE	TESTED_TARGET	EC50
COc1nc2ccccc2cc1-c1cnc([C@@H]2CN(CC3CCOC3)CCN2C(=O)Cn2c(C)nc3ncncc32)[nH]1 (stereo partly drawn)	Bloodstream form of Trypanosoma brucei, strain Lister 427	1010 to 5000 nM
CCCCCCN1CCN(C(=O)CC2=C(C)NC3C=CC=CC23)C(c2ncc(-c3cc4ccccc4nc3OC)[nH]2)C1 (stereo not drawn)	Bloodstream form of Trypanosoma brucei, strain Lister 427	100 to 500 nM
CCCCCCN1CCN(C(=O)Cc2c(C)[nH]c3ccc(OC)cc23)C(c2ncc(-c3ccc4ccccc4c3)[nH]2)C1 (stereo not drawn)	Bloodstream form of Trypanosoma brucei, strain Lister 427	< 100 nM

Lookup: EC50 / Bloodstream form of Trypanosoma brucei, strain Lister 427 / COc1nc2ccccc2cc1-c1cnc(C2CN(CC3CCOC3)CCN2C(=O)Cc2c[nH]c3ccncc23)[nH]1 (stereo not drawn)
1010 to 5000 nM

Lookup: EC50 / Bloodstream form of Trypanosoma brucei, strain Lister 427 / COc1nc2ccccc2cc1-c1cnc(C2CN(CC3CCOC3)CCN2C(=O)c2cc(C)n(Cc3ccccc3)n2)[nH]1 (stereo not drawn)
1010 to 5000 nM

Lookup: EC50 / Bloodstream form of Trypanosoma brucei, strain Lister 427 / COc1ccc2nc(C(F)(F)F)n(CC(=O)N3CCN(CC4CCN(C(C)=O)C4)C[C@H]3c3ncc(-c4cc5ccccc5nc4OC)[nH]3)c2c1 (stereo partly drawn)
< 100 nM

Lookup: EC50 / Bloodstream form of Trypanosoma brucei, strain Lister 427 / CN1CCN(C(=O)C2(c3ccccc3)CC2)C(c2ncc(-c3ccc4ccccc4c3)[nH]2)C1 (stereo not drawn)
1010 to 5000 nM

Lookup: EC50 / Bloodstream form of Trypanosoma brucei, strain Lister 427 / COc1nc2ccccc2cc1-c1cnc(C2CN(CC3CCOC3)CCN2C(=O)Cc2c(C)[nH]c3ccc(F)cc23)[nH]1 (stereo not drawn)
< 100 nM

Lookup: EC50 / Bloodstream form of Trypanosoma brucei, strain Lister 427 / COc1nc2ccccc2cc1-c1cnc([C@@H]2CN(Cc3ccccc3)CCN2C(=O)Cn2c(C(F)(F)F)nc3ccccc32)[nH]1
< 100 nM

Lookup: EC50 / Bloodstream form of Trypanosoma brucei, strain Lister 427 / CCC(=O)CCC(=O)N1CCN(C(=O)Cc2c(C)[nH]c3ccc(OC)cc23)C(c2ncc(-c3ccc4ccccc4c3)[nH]2)C1 (stereo not drawn)
100 to 500 nM

Lookup: EC50 / Bloodstream form of Trypanosoma brucei, strain Lister 427 / COc1ccc2nc(C)n(CC(=O)N3CCN(CC4CCOC4)C[C@H]3c3ncc(-c4ccc5ncsc5c4)[nH]3)c2c1 (stereo partly drawn)
1010 to 5000 nM

Lookup: EC50 / Bloodstream form of Trypanosoma brucei, strain Lister 427 / O=C(Cc1n[nH]c2ccccc12)N1CCN(Cc2ccccc2)CC1c1ncc(-c2ccc3ccccc3c2)[nH]1 (stereo not drawn)
1010 to 5000 nM

Lookup: EC50 / Bloodstream form of Trypanosoma brucei, strain Lister 427 / CCC(=O)CCCN1CCN(C(=O)Cc2c[nH]c3ncccc23)C(c2ncc(-c3ccc4ccccc4c3)[nH]2)C1 (stereo not drawn)
510 to 1000 nM

Lookup: EC50 / Bloodstream form of Trypanosoma brucei, strain Lister 427 / COc1nc2ccccc2cc1-c1cnc(C2CCN(Cc3ccn(C)n3)CCN2C(=O)Cn2c(C(F)(F)F)nc3ccccc32)[nH]1 (stereo not drawn)
< 100 nM

Lookup: EC50 / Bloodstream form of Trypanosoma brucei, strain Lister 427 / COc1ccc2nc(C(F)(F)F)n(CC(=O)N3CC[C@H](NCCO)C[C@H]3c3ncc(-c4cc5ccccc5nc4OC)[nH]3)c2c1
< 100 nM

* * *

# Test system: Bloodstream form of Trypanosoma brucei, strain Lister 427
# EXPERIMENT_SUMMARY: Trypanosoma brucei growth inhibition assay (CellTiter-Glo, 24 h)
# Assay type: cell-based
# ASSAY_CONDITIONS: Trypanosoma brucei; T. Brucei Growth Inibition Assay, class symbols; read-out: T. Brucei GI EC50
REPORTED_PROPERTY: EC50

Reference set, count: 3
COMPOUND	TESTED_TARGET	REPORTED_PROPERTY	VALUE_MEASURED
COc1ccc2nc(C(F)(F)F)n(CC(=O)N3CCN(CC4CCOC4)C[C@H]3c3nnc(-c4cc5ccccc5nc4OC)[nH]3)c2c1 (stereo partly drawn)	Bloodstream form of Trypanosoma brucei, strain Lister 427	EC50	< 100 nM
COc1ccc2nc(C(F)(F)F)n(CC(=O)N3CC[C@H](N(C)C)C[C@H]3c3ncc(-c4cc5ccccc5nc4OC)[nH]3)c2c1	Bloodstream form of Trypanosoma brucei, strain Lister 427	EC50	< 100 nM
CCCCCCN1CCN(C(=O)Cc2n[nH]c3ccccc23)C(c2ncc(-c3ccc4ccccc4c3)[nH]2)C1 (stereo not drawn)	Bloodstream form of Trypanosoma brucei, strain Lister 427	EC50	1010 to 5000 nM

Return reported EC50; argument: COc1nc2ccccc2cc1-c1cnc(C2CN(CC3CCOC3)CCN2C(=O)Cc2sc3ccccc3c2C)[nH]1 (stereo not drawn)
100 to 500 nM

Return reported EC50; argument: COc1ccc2cc(C)n(CC(=O)N3CCOCC3c3ncc(-c4cc5ccccc5nc4OC)[nH]3)c2c1 (stereo not drawn)
510 to 1000 nM

Return reported EC50; argument: COc1nc2ccccc2cc1-c1cnc(C2CN(C)CCN2C(=O)Cc2c(C)[nH]c3ccc(F)cc23)[nH]1 (stereo not drawn)
100 to 500 nM

Return reported EC50; argument: COc1ccc2nc(C)n(CC(=O)N3CCN(CC4CCOC4)C[C@H]3c3ncc(-c4cc5ccccc5n4C(=O)OC(C)(C)C)[nH]3)c2c1 (stereo partly drawn)
1010 to 5000 nM

Return reported EC50; argument: COc1ccc2cc(C)n(CC(=O)N3CCN(Cc4ccn(C)n4)CCC3c3ncc(-c4cc5ccccc5nc4OC)[nH]3)c2c1 (stereo not drawn)
< 100 nM

Return reported EC50; argument: COc1ccc2onc(CC(=O)N3CCN(CC4CCOC4)C[C@H]3c3ncc(-c4cc5ccccc5nc4OC)[nH]3)c2c1 (stereo partly drawn)
100 to 500 nM

Return reported EC50; argument: COc1nc2ccccc2cc1-c1cnc([C@@H]2CN(CC(F)(F)F)CCN2C(=O)Cn2c(C(F)(F)F)nc3ccccc32)[nH]1
< 100 nM

* * *

Entries and their measured EC50 follow.
# System: Bloodstream form of Trypanosoma brucei, strain Lister 427
# EXPERIMENT_SUMMARY: Trypanosoma brucei growth inhibition assay (CellTiter-Glo, 24 h)
# Format: cell-based
# ASSAY_CONDITIONS: Trypanosoma brucei; T. Brucei Growth Inibition Assay, class symbols; read-out: T. Brucei GI EC50

MOLECULE	TESTED_TARGET	VALUE_MEASURED
COc1nc2ccccc2cc1-c1cnc(C2CN(CC3CCOC3)CCN2C(=O)Cn2nnc3ccccc32)[nH]1 (stereo not drawn)	Bloodstream form of Trypanosoma brucei, strain Lister 427	510 to 1000 nM
COc1ncc(CN2CCN(C(=O)Cc3c(C)[nH]c4ccc(F)cc34)C(c3ncc(-c4cc5ccccc5nc4OC)[nH]3)C2)cn1 (stereo not drawn)	Bloodstream form of Trypanosoma brucei, strain Lister 427	100 to 500 nM
COc1nc2ccccc2cc1-c1cnc([C@@H]2CN(CC3CCOC3)CCN2C(=O)Cn2c(C(F)(F)F)nc3ncccc32)[nH]1 (stereo partly drawn)	Bloodstream form of Trypanosoma brucei, strain Lister 427	1010 to 5000 nM
COc1ccc2nc(C(F)(F)F)n(CC(=O)N3CC[C@H](N[C@H]4CCOC4)C[C@H]3c3ncc(-c4cc5ccccc5nc4OC)[nH]3)c2c1	Bloodstream form of Trypanosoma brucei, strain Lister 427	< 100 nM
COc1nc2ccccc2cc1-c1cnc(C2CN(CC3CCOC3)CCN2C(=O)Cn2nc(C)c3ccccc3c2=O)[nH]1 (stereo not drawn)	Bloodstream form of Trypanosoma brucei, strain Lister 427	510 to 1000 nM

Lookup: EC50 / Bloodstream form of Trypanosoma brucei, strain Lister 427 / CCC(=O)CCCN1CCN(C(=O)Cc2ccccc2)C(c2ncc(-c3ccc4ccccc4c3)[nH]2)C1 (stereo not drawn)
1010 to 5000 nM

Lookup: EC50 / Bloodstream form of Trypanosoma brucei, strain Lister 427 / COc1ccc2nc(C(F)(F)F)n(CC(=O)N3CCC(N(C)Cc4cnccn4)C[C@H]3c3ncc(-c4cc5ccccc5nc4OC)[nH]3)c2c1 (stereo partly drawn)
< 100 nM

Lookup: EC50 / Bloodstream form of Trypanosoma brucei, strain Lister 427 / COc1ccc2nc(C(F)(F)F)n(CC(=O)N3CCN(C4CCN(C)CC4)C[C@H]3c3ncc(-c4cc5ccccc5nc4OC)[nH]3)c2c1
100 to 500 nM

Lookup: EC50 / Bloodstream form of Trypanosoma brucei, strain Lister 427 / COc1ccc2nc(C(F)(F)F)n(CC(=O)N3CCN(Cc4cnccn4)C[C@H]3c3ncc(-c4cc5ccccc5nc4OC)[nH]3)c2c1
< 100 nM

Lookup: EC50 / Bloodstream form of Trypanosoma brucei, strain Lister 427 / COc1ccc2nc(C(F)(F)F)n(CC(=O)N3CC[C@H](N(Cc4ccn(C)n4)C(C)C)C[C@H]3c3ncc(-c4cc5ccccc5nc4OC)[nH]3)c2c1
< 100 nM

Lookup: EC50 / Bloodstream form of Trypanosoma brucei, strain Lister 427 / COc1nc2ccccc2cc1-c1cnc([C@@H]2CN(C3CCC(F)(F)CC3)CCN2C(=O)Cn2c(C(F)(F)F)nc3ccccc32)[nH]1
< 100 nM

Lookup: EC50 / Bloodstream form of Trypanosoma brucei, strain Lister 427 / COc1nc2ccccc2cc1-c1cnc([C@@H]2CN(CC3CCOC3)CCN2C(=O)Cn2c(CC(F)(F)F)nc3ccccc32)[nH]1 (stereo partly drawn)
100 to 500 nM

Origin of values: patent US10815222B2
